# System: NCI-H1618 multicellular tumor spheroid viability
# assayText: Anticancer human tumor NCI-H1618 cell line growth inhibition;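 further: spheroids exposed to agents for 7 days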
# assayContext: curve of first compound; second compound 10 µM
I'd appreciate it if you could supply IC50 values for the items below.

Sample Cc1sc2c(c1C)C(c1ccc(Cl)cc1)=NC(CC(=O)Nc1ccc(O)cc1)c1nnc(C)n1-2 (centres undefined) + Cn1nnc2c(C(N)=O)ncn2c1=O — what was its IC50? < 9.49 nM

Sample O=C(c1cc(Cc2n[nH]c(=O)c3ccccc23)ccc1F)N1CCN(C(=O)C2CC2)CC1 + Cn1nnc2c(C(N)=O)ncn2c1=O — what was its IC50? < 94.9 nM

Sample CC1COCCN1c1cc(-c2ccnn2C)c2ccnc(-c3ccn[nH]3)c2n1 (centres undefined) + Cn1nnc2c(C(N)=O)ncn2c1=O — what was its IC50? < 31.6 nM

Sample [2H]c1nc(C)nc([2H])c1-c1cc(NC[C@@H](C)c2cccc3c(C(=O)NC)ccnc23)ncn1 + Cn1nnc2c(C(N)=O)ncn2c1=O — what was its IC50? < 31.6 nM

All figures here come from PubChem BioAssay AID1845206.
